Test system: BT-549
experimental-details: NCI tumour cell line growth inhibition, 48 h
Calls of active or inactive are those of the source. Rule as the data show it: active = GI50 up to about 1.1 µM and inactive = higher.
Classes used: t = active, f = inactive

| compound | subject-of-test | class-assignment |
| --- | --- | --- |
| CC(C)(C)C1=NC(=P(c2ccccc2)(c2ccccc2)c2ccccc2)C(=O)O1 | BT-549 | f |
| O=C(NCCCNC(=O)c1ccc2c(O)c(O)ccc2c1)c1ccc2c(O)c(O)ccc2c1 | BT-549 | f |
| CC1=C(C(=O)N[C@@H](CC(C)C)C(=O)O)N2C(=O)[C@@H](NC(=O)C(N)c3ccccc3)[C@H]2SC1 (stereo not given in full) | BT-549 | f |
| COc1ccc(N2C(=O)/C(=C/c3ccc(N(CCC#N)CCC#N)cc3)N=C2c2ccccc2)cc1 | BT-549 | f |
| COc1cc(-c2c[nH]c3ccccc23)nc(-c2c[nH]c3ccccc23)n1 | BT-549 | f |
| Cc1ccc(C2=Nc3ccccc3SC(c3cccc([N+](=O)[O-])c3)C2)cc1 (stereo not given) | BT-549 | f |
| COc1ccc(CC(N)c2ccc(OC)cc2)cc1 (stereo not given) | BT-549 | f |
| CCOC(=O)C(C)c1nc2cc(N3CCN(C)CC3)c(F)cc2[nH]c1=O (stereo not given) | BT-549 | f |
| CC(C)(C)OC(=O)NC(Cc1ccccc1)OCc1ccccc1 (stereo not given) | BT-549 | f |
| COc1ccc(COCC[C@H](C)OC2OC(CO[Si](C)(C)C(C)(C)C)C(O)C(O)C2O)cc1 (stereo not given in full) | BT-549 | f |
| O=CN(CCN1CCCC1)C1CCc2cc(Cl)c(Cl)cc2C1 (stereo not given) | BT-549 | f |
| NC(=O)C(c1ccccc1)N1OC2C(=O)N(c3ccccc3)C(=O)C2C1c1c2ccccc2c(Cl)c2ccccc12 (stereo not given) | BT-549 | f |
| O=C1CS[C@@](CC(c2ccc(Cl)cc2)c2ccc(Cl)cc2)(c2ccc(Cl)cc2)N1 | BT-549 | f |
| CCOC(=O)/C=C/[C@H](O[Si](CC)(CC)CC)C(C)(C)C | BT-549 | f |
| COC(=O)c1cc(C)ccc1/C=C1\Cc2cccc(C)c2C1=O | BT-549 | f |
| CCOC(=O)[C@@H]1C[C@H]1c1ccc(O)c(O)c1 | BT-549 | f |
| COc1cc(/C=C\c2ccc(C)cc2)cc(OC)c1OC | BT-549 | t |
| O=C(/C=C/c1ccc(/C=C/C(=O)c2ccc(O)cc2)cc1)c1ccc(O)cc1 | BT-549 | f |
| O=C(c1ccccc1)c1ccc2c(c1)nc1n2C(c2c(F)cccc2F)SC1 (stereo not given) | BT-549 | f |
| Oc1ccc(Cl)cc1C1=NC(NCN2CCN(CNC3=NC(c4ccccc4)CC(c4cc(Cl)ccc4O)=N3)CC2)=NC(c2ccccc2)C1 (stereo not given) | BT-549 | f |

Sourced from ChEMBL document CHEMBL1201862
